- Tested on: 874868-142-R-J2-PDC complex spheroids, growth % test/control;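 note: spheroids exposed to the compounds for 7 days; 100% = DMSO vehicle control viability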
- TEST NAME: Anticancer human tumor 874868-142-R-J2-PDC patient-derived head and neck squamous carcinoma cell line growth inhibition [CLK]
- REPORTED CONDITIONS: second compound 0.0316 µM; first compound 0.1 µM; stronger effect = lower value
ASSAY ENDPOINT: viability, T/C (%)

[
  {
    "COMPOUND": "COC1C=CCC(C)C(C)S(=O)(=O)NC(=O)c2ccc3c(c2)N(CC2CCC21)CC1(CCCc2cc(Cl)ccc21)CO3 (centres undefined) + CN1CCN(c2cc(C(=O)Nc3cc4cc(-c5cnn(C)c5)ccc4cn3)ccn2)CC1",
    "UNITS LABEL": "%",
    "MEASUREMENT": 93.2
  },
  {
    "COMPOUND": "COC1C=CCC(C)C(C)S(=O)(=O)NC(=O)c2ccc3c(c2)N(CC2CCC21)CC1(CCCc2cc(Cl)ccc21)CO3 (centres undefined) + CNC(=O)c1ccc(Nc2nc(OC3CCCC3)c3c(-c4ccc5nc(C)oc5c4)c[nH]c3n2)c(OC)c1",
    "UNITS LABEL": "%",
    "MEASUREMENT": 87.4
  },
  {
    "COMPOUND": "CC1(C)CCC(CN2CCN(c3ccc(C(=O)NS(=O)(=O)c4ccc(NCC5CCOCC5)c([N+](=O)[O-])c4)c(Oc4cnc5[nH]ccc5c4)c3)CC2)=C(c2ccc(Cl)cc2)C1 + CNC(=O)c1ccc(Nc2nc(OC3CCCC3)c3c(-c4ccc5nc(C)oc5c4)c[nH]c3n2)c(OC)c1",
    "UNITS LABEL": "%",
    "MEASUREMENT": 103
  },
  {
    "COMPOUND": "CC1COCCN1c1cc(C2(S(C)(=N)=O)CC2)nc(-c2ccnc3[nH]ccc23)n1 (centres undefined) + CNC(=O)c1ccc(Nc2nc(OC3CCCC3)c3c(-c4ccc5nc(C)oc5c4)c[nH]c3n2)c(OC)c1",
    "UNITS LABEL": "%",
    "MEASUREMENT": 96.2
  },
  {
    "COMPOUND": "CC(Nc1ccc2c(c1)OCCn1cc(N3C(=O)OCC3C(F)F)nc1-2)C(N)=O (centres undefined) + CN1CCN(c2cc(C(=O)Nc3cc4cc(-c5cnn(C)c5)ccc4cn3)ccn2)CC1",
    "UNITS LABEL": "%",
    "MEASUREMENT": 46.7
  },
  {
    "COMPOUND": "O=C(c1cc(Cc2n[nH]c(=O)c3ccccc23)ccc1F)N1CCN(C(=O)C2CC2)CC1 + CN1CCN(c2cc(C(=O)Nc3cc4cc(-c5cnn(C)c5)ccc4cn3)ccn2)CC1",
    "UNITS LABEL": "%",
    "MEASUREMENT": 88
  },
  {
    "COMPOUND": "C=C(F)C(=O)N1CCN(c2nc(OCC3CCCN3C)nc3c2CCN(c2cccc4cccc(Cl)c24)C3)CC1CC#N (centres undefined) + CN1CCN(c2cc(C(=O)Nc3cc4cc(-c5cnn(C)c5)ccc4cn3)ccn2)CC1",
    "UNITS LABEL": "%",
    "MEASUREMENT": 85.3
  },
  {
    "COMPOUND": "CC(=O)O[C@H]1C(=O)[C@@]2(C)[C@H]([C@H](OC(=O)c3ccccc3)[C@]3(O)C[C@H](OC(=O)[C@H](O)[C@@H](NC(=O)c4ccccc4)c4ccccc4)C(C)=C1C3(C)C)[C@]1(OC(C)=O)CO[C@@H]1C[C@@H]2O + CN1CCN(c2cc(C(=O)Nc3cc4cc(-c5cnn(C)c5)ccc4cn3)ccn2)CC1",
    "UNITS LABEL": "%",
    "MEASUREMENT": 18.9
  },
  {
    "COMPOUND": "Nc1ccccc1NC(=O)c1ccc(CNC(=O)OCc2cccnc2)cc1 + CNC(=O)c1ccc(Nc2nc(OC3CCCC3)c3c(-c4ccc5nc(C)oc5c4)c[nH]c3n2)c(OC)c1",
    "UNITS LABEL": "%",
    "MEASUREMENT": 87.5
  }
]

Source: PubChem BioAssay AID2060601
